This section presents molecules with their documented Kb values.
system-tested: contracturing effect of histamine (Cavia porcellus)
Construct: Segments measuring 5-6 cm were drawn form the end portion of the small intestine; from tissue; host or cells: guinea pig terminal small intestine (ileum)
Sequence (P31389 whole entry): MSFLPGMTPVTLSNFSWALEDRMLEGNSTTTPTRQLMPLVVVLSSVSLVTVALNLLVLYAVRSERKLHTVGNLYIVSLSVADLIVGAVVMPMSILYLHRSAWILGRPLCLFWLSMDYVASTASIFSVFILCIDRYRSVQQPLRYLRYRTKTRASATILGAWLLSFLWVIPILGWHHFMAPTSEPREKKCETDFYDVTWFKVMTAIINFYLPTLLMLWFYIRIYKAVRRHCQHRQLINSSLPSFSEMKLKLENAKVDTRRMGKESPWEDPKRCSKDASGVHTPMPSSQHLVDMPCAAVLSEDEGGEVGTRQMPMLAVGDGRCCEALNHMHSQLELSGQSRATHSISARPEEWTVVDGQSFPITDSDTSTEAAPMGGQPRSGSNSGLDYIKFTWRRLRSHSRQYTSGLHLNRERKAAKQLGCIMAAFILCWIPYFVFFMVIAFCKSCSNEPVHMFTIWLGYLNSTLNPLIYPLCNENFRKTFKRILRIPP
experiment-summary: antihistaminic activity in vitro (contracturing effect of histamine on isolated guinea pig small intestine)
Set-up: species or system Guinea pigs
condition-info: vs histamine; guinea pig small intestine; 37° C.; test compounds 10^-5 M; read-out: Antihistaminic activity (pA2) (converted)
Structures can show the parent of a compound that is named as a salt.

{"molecule": "Cc1cc(C(=O)OC2CCCN(C)C2)no1 (stereo not drawn) [Compound 10, hydrochloride]", "Kb / µM": 200}
{"molecule": "Cc1cc(C(=O)N[C@@H]2C[C@H]3CC[C@@H](C2)N3C)no1", "Kb / µM": 50.1}
{"molecule": "Cc1cc(C(=O)NC2CN3CCC2CC3)no1 (stereo not drawn)", "Kb / µM": 50.1}
{"molecule": "CN1[C@@H]2CC[C@H]1C[C@@H](OC(=O)c1cc(OCc3ccccc3)no1)C2 [Compound 3, hydrochloride]", "Kb / µM": 2.51}
{"molecule": "Cc1cc(C(=O)O[C@H]2C[C@H]3CC[C@@H](C2)[N+]3(C)C)no1", "Kb / µM": 15.8}
{"molecule": "COc1cc(C(=O)O[C@H]2C[C@H]3CC[C@@H](C2)N3C)on1 [Compound 6, hydrochloride]", "Kb / µM": 6.31}
